We begin with a simple list: items and their reported Corticosterone as an indicator to determine the presence of inhibition.
test system: H295R cell line; assay: Adrenocortical function in vitro test: secretion of cortisol and corticosterone, Group B compounds; assay type: cell-based; conditions: H295R cells
Lab note: jot the number down without any unit.

Some entries whose results are on file:
- molecule: "C=CCOC(=O)c1c(Br)nnn1[C@H](C)c1ccccc1 [Compound B108]"
  measured-number: 0
- molecule: "C[C@H](c1ccccc1)n1nncc1C(=O)OC(C)(C)C [Compound B12]"
  measured-number: 0

Given C=C=CC1(OC(=O)c2c(I)nnn2[C@H](C)c2ccccc2)CCCCC1 [Compound B137] , state its recorded Corticosterone as an indicator to determine the presence of inhibition.
0
